FYI, the data here is from the supplement of paper PMC11451515.

- Test system: NOMO1
- assay_explanation: cell viability relative to DMSO control; higher = less cytotoxic
- experimental_context: HPLM + 10% dialyzed FBS; 48 h; 46.1 µM
# if measured cell viability < 70%: Criterion met  # else: Criterion not met

compound: C[S+](=O)([O-])N1CCc2c(-c3cnc(N)nc3)nc(N3CCOCC3)nc21
class_label: Criterion not met

compound: CC(C)CC(=O)N[C@H](C(=O)N[C@H](C(=O)N[C@@H](CC(C)C)[C@@H](O)CC(=O)N[C@@H](C)C(=O)N[C@@H](CC(C)C)[C@@H](O)CC(=O)O)C(C)C)C(C)C
class_label: Criterion not met

compound: C[N]1C=C(C2=C1C=CC=C2)\C3=C(\C(=O)NC3=O)C4=C5CC(CN)CC[N]5C6=C4C=CC=C6 (configuration not stated)
class_label: Criterion met

compound: Cc1cn(-c2cc(NC(=O)c3ccc(C)c(Nc4nccc(-c5cccnc5)n4)c3)cc(C(F)(F)F)c2)cn1
class_label: Criterion not met

compound: CSCC[C@@H](NC(=O)[C@@H](Cc1ccccc1)NC(=O)CNC(=O)CNC(=O)[C@@H](N)Cc1ccc(O)cc1)C(=O)O
class_label: Criterion not met

compound: Cc1cnc(-c2cc(N3CCN(C(=O)CC[S+](C)(=O)[O-])CC3)ncc2Cl)c(C)c1
class_label: Criterion not met
